biological target: T1, Biotinylated recombinant human IL-6 (human, UniProt P05231 30-212, biotinylated (sites not given)); assay: SPR (Biacore), IL-6 on chip
T1 construct: In the cell bioassay IL-6 (0.5 nM) was used in solution; also called Interleukin-6; IL-6-Biotin
Label Fulfilled when Kd is strictly below 600 nM; at or above that, label Not fulfilled.

Prompt: Does this binder meet the criterion Kd < 600 nM? ACMDLLRRMCHIVG (termini not protected) [Peptide 28]
Completion: Not fulfilled

Next:
Prompt: Does this binder meet the criterion Kd < 600 nM? ATIRDLLRRMCHIVG (termini not protected) [Peptide 38]
Completion: Fulfilled

Prompt: Does this binder meet the criterion Kd < 600 nM? SVRDWTPRMCHIVG (termini not protected) [Peptide 48]
Completion: Not fulfilled

Prompt: Does this binder meet the criterion Kd < 600 nM? FAFRDLLRRMCHIVG (termini not protected) [Peptide 45]
Completion: Fulfilled

Prompt: Does this binder meet the criterion Kd < 600 nM? SVRDLLRRMKVCVG (termini not protected) [Peptide 27]
Completion: Fulfilled

Prompt: Does this binder meet the criterion Kd < 600 nM? SVRDLPTQMCHIVG (termini not protected) [Peptide 37]
Completion: Not fulfilled

Prompt: Does this binder meet the criterion Kd < 600 nM? ETIRDLLRRMCHIVG (termini not protected) [Peptide 24]
Completion: Fulfilled

Prompt: Does this binder meet the criterion Kd < 600 nM? SVRDLLRRMCHIVG (linear, N and C termini not protected; also called 9 (parent); parent peptide 9) [Peptide 9]
Completion: Not fulfilled

Prompt: Does this binder meet the criterion Kd < 600 nM? SVRDLIRMMCHIVG (termini not protected; also called variant 33) [Peptide 33]
Completion: Fulfilled
